Listed below: IC50 values for each entry.
Tested on: HCT-116 human colon carcinoma cells
Protocol Text: Cytotoxic activity on culture of human colon carcinoma cells HCT-116 (Alamar Blue)
Assay type: cell-based
Assay Setup: HCT-116 cells, 72 hours after addition of compounds, Alamar Blue viability
The reply should consist of the numeric value with the unit placed after it.

The following molecules have reported results that may help.
{"Record Smiles": "CN(C)c1ccc2c(c1)S(=O)(=O)N(CCCCCC(=O)NO)c1ccccc1N2", "Assayed Target": "HCT-116 human colon carcinoma cells", "IC50": "0.39 µM"}
{"Record Smiles": "CN(C)c1ccc2c(c1)S(=O)(=O)N(CCCCCC(=O)NO)c1ccc(O)cc1N2", "Assayed Target": "HCT-116 human colon carcinoma cells", "IC50": "1 µM"}
{"Record Smiles": "COc1ccc2c(c1)N(CCCCCC(=O)NO)C(=O)c1ccccc1S2(=O)=O", "Assayed Target": "HCT-116 human colon carcinoma cells", "IC50": "0.04 µM"}
{"Record Smiles": "O=C(CCCCCN1c2cc(F)ccc2Nc2ccccc2S1(=O)=O)NO", "Assayed Target": "HCT-116 human colon carcinoma cells", "IC50": "1.5 µM"}

stdin: Tell me its IC50 given `COc1ccc2c(c1)Nc1ccccc1S(=O)(=O)N2CCCCCC(=O)NO` as the entry.
stdout: 0.29 µM

stdin: Tell me its IC50 given `O=C(CCCCCN1C(=O)c2cscc2Nc2cc(Cl)c(Cl)cc21)NO` as the entry.
stdout: 0.8 µM

stdin: Tell me its IC50 given `COc1ccc2c(c1)Nc1ccccc1N(CCCCCC(=O)NO)S2(=O)=O` as the entry.
stdout: 0.39 µM

stdin: Tell me its IC50 given `COc1ccc2c(c1)N(CCCCCC(=O)NO)C(=O)c1ccccc1O2` as the entry.
stdout: 0.31 µM

stdin: Tell me its IC50 given `Nc1cccc2c1Nc1ccccc1S(=O)(=O)N2CCCCCC(=O)NO` as the entry.
stdout: 2 µM
